Data origin, for the record: paper PMC5540273

System: TGFBR1
Details: concentration: 1 μM, replicates: in singlicate; n = 1;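 also: KINOMEscan kinase panel screen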
Would you kindly list %Inh for each of these molecules?
Number in %, nothing else.

Enquiry: Find %Inh for NCCCC(NC(=O)c1cc(Br)c(-c2ccnc3[nH]ccc23)s1)c1ccccc1.O=C(O)C(F)(F)F.O=C(O)C(F)(F)F (stereo not drawn) [GSK1287544] on TGFBR1 and write it down.
Return: 0

Enquiry: Please indicate recorded %Inh of O=C(Nc1cccc(-c2nn3ccccc3c2-c2ccnc(Nc3cccc(F)c3)n2)c1)c1c(F)ccc(F)c1Cl [GSK357952] measured with TGFBR1.
Return: 2

Enquiry: Look up and report %Inh, with TGFBR1 as system, for "COc1cc2c(cc1OCCN1CCNCC1)ncc1c3ccc(C#N)cc3[nH]c21"
Return: 20

Enquiry: Report measured %Inh on TGFBR1; entry: Cc1ccc(C(=O)Nc2ccc(Nc3ccnc4cc(-c5nccs5)ccc34)cc2O)cc1.Cl [GW494702]
Return: 40

Enquiry: Report its %Inh with TGFBR1 as the test system: CN(c1ccc(NC(=O)Nc2cc(C(F)(F)F)ccc2F)cc1)c1ccnc(Nc2ccc(S(N)(=O)=O)cc2)n1 [GW809893]
Return: 0

Enquiry: Please respond with reported %Inh (system TGFBR1) for COc1cc(Nc2nccc(-c3c(-c4cccc(NC(=O)c5c(F)cccc5F)c4)nn4ccccc34)n2)cc(OC)c1OC [GSK323521] .
Return: 0

Enquiry: Find %Inh for CC(C)(C)c1ccc2nccc(Nc3cccc(O)c3)c2c1 [GW856795] on TGFBR1 and write it down.
Return: 42

Enquiry: State recorded %Inh with TGFBR1, entry CCn1c(-c2nonc2N)nc2c(C#CC(C)(C)O)ncc(OCCCCN)c21.O=C(O)C(F)(F)F.O=C(O)C(F)(F)F [GSK507274] , no comment.
Return: 0

Enquiry: Lab note: TGFBR1 assay, enter %Inh for O=C(Nc1n[nH]c2cc(-c3ccoc3)ccc12)C1CC1 [SB-738481] here
Return: 0

* * *

Test system: TAOK3
Conditions: concentration: 1 μM, replicates: in singlicate; n = 1
Would you mind telling me the reported %Inh of each entry?
Enter your answer as a number in %; do not include the unit.

Enquiry: For the molecule "O=C(O)C(F)(F)F.O=C(O)C(F)(F)F.O=c1[nH]ccc2nc(N[C@@H]3CCCNC3)nc(Nc3ccc(S(=O)(=O)N4CCOCC4)cc3)c12" , give its measured %Inh value.
Return: 99.5

Enquiry: Specify reported %Inh for the molecule shown: "CCCCc1nn2ncccc2c1-c1ccnc(Nc2ccc(N3CCN(C)CC3)cc2)n1"
Return: 42

Enquiry: Provide measured %Inh value, entry: "Cn1cc(-c2ccc3c(c2)CCN3C(=O)Cc2cccc(F)c2)c2c(N)ncnc21"
Return: 0

Enquiry: Look up and report measured %Inh for this entry: "C[C@@H](Oc1cc(-n2cnc3cc(-c4ccnc(NCCS(C)(=O)=O)c4)ccc32)sc1C(N)=O)c1ccccc1Cl"
Return: 0

Enquiry: Identify %Inh associated with the molecule "Cc1cccc(NC(=O)Nc2ccc(Oc3ncnc4ccn(C)c34)cc2)c1"
Return: 0

Enquiry: Determine from records and report %Inh for "CC(C)(C)c1ccc2nccc(Nc3cccc(O)c3)c2c1"
Return: 59

Enquiry: Kindly indicate its recorded %Inh. Item: Cc1ccc(C)c(NC(=O)NC2CCN(c3ccnc(Nc4ccc(F)cc4)n3)C2)c1 (centres unmarked)
Return: 0

Enquiry: Please list %Inh recorded for the molecule COc1ccc(Nc2nccc(N3CCC(NC(=O)Nc4cccc(OC)c4)C3)n2)cc1 (centres unmarked)
Return: 0
